The entries below are paired with their reported pIC50.
# assay.target: UniProt:Q06187
pIC50: −log10 of the molar value.
readout.label: pIC50

smiles_data=CN(C)C/C=C/C(=O)N(C)c1cccc(-n2c(=O)n(-c3ccc(C(=O)Nc4ncccc4F)cc3)c3c(N)ncnc32)c1 readout_label=pIC50 readout_value="6.00 to 7.00"
smiles_data=CN(C)C/C=C/C(=O)N(C)c1cccc(-n2c(=O)n(-c3ccc(OC4CC4)cc3)c3c(N)ncnc32)c1 readout_label=pIC50 readout_value="6.00 to 7.00"
smiles_data=CN(C(=O)/C=C/CN(C)C1CC1)c1cccc(-n2c(=O)n(-c3ccc(C(=O)c4ccccc4)cc3)c3c(N)ncnc32)c1 readout_label=pIC50 readout_value="> 7.00"
smiles_data=CN(C)C/C=C/C(=O)N(C)c1cccc(-n2c(=O)n(-c3ccc(C(=O)Nc4cccc(C(F)(F)F)c4)cc3)c3c(N)ncnc32)c1 readout_label=pIC50 readout_value="> 7.00"
smiles_data=Cc1csc(NC(=O)c2ccc(-n3c(=O)n(-c4cccc(N(C)C(=O)/C=C/CN(C)C)c4)c4ncnc(N)c43)cc2)n1 readout_label=pIC50 readout_value="> 7.00"
smiles_data=Cc1nnc(NC(=O)c2ccc(-n3c(=O)n(-c4cccc(N(C)C(=O)/C=C/CN(C)C)c4)c4ncnc(N)c43)cc2)s1 readout_label=pIC50 readout_value="5.00 to 6.00"

---

pIC50: −log10 of the molar value.
Record set of pIC50 for target or system Btk (Homo sapiens (Human), UniProt Q06187).
readout.label: pIC50

compound="CN(C)C/C=C/C(=O)N(C)c1cccc(-n2c(=O)n(-c3ccc(C(=O)Nc4cc(C(F)(F)F)ccn4)cc3)c3c(N)ncnc32)c1 [Compound 10]" readout_label=pIC50 readout_value="> 7.00"
compound="Cc1ccnc(NC(=O)c2ccc(-n3c(=O)n(-c4cccc(N(C)C(=O)/C=C/CN(C)C)c4)c4ncnc(N)c43)cc2)c1 [Compound 7]" readout_label=pIC50 readout_value="> 7.00"
compound="CN(C(=O)/C=C/CN(C)C1CC1)c1cccc(-n2c(=O)n(-c3ncc(Oc4ccccc4)cn3)c3c(N)ncnc32)c1 [Compound 69]" readout_label=pIC50 readout_value="> 7.00"
compound="CCCc1ccnc(NC(=O)c2ccc(-n3c(=O)n(-c4cccc(N(C)C(=O)/C=C/CN(C)C)c4)c4ncnc(N)c43)cc2)c1 [Compound 9]" readout_label=pIC50 readout_value="> 7.00"
compound="C=CC(=O)N(C)c1cccc(-n2c(=O)n(-c3ccc(C(=O)Nc4ccccn4)cc3)c3c(N)ncnc32)c1 [Compound 29]" readout_label=pIC50 readout_value="> 7.00"
compound="CN(C)C/C=C/C(=O)N(C)c1cccc(-n2c(=O)n(-c3ccc(C(=O)c4ccccc4)cc3)c3c(N)ncnc32)c1 [Compound 26]" readout_label=pIC50 readout_value="> 7.00"
compound="CN(C)C/C=C/C(=O)N(C)c1cccc(-n2c(=O)n(-c3ccc(C(=O)Nc4ccc(F)cn4)cc3)c3c(N)ncnc32)c1 [Compound 14]" readout_label=pIC50 readout_value="> 7.00"
compound="Cc1nc(NC(=O)c2ccc(-n3c(=O)n(-c4cccc(N(C)C(=O)/C=C/CN(C)C)c4)c4ncnc(N)c43)cc2)sc1C [Compound 21]" readout_label=pIC50 readout_value="> 7.00"
compound="CN(C(=O)/C=C/CN(C)C1CC1)c1cccc(-n2c(=O)n(-c3ccc(Oc4ccccn4)cc3)c3c(N)ncnc32)c1 [Compound 63]" readout_label=pIC50 readout_value="> 7.00"
compound="Cc1cc(NC(=O)c2ccc(-n3c(=O)n(-c4cccc(N(C)C(=O)/C=C/CN(C)C)c4)c4ncnc(N)c43)cc2)sn1 [Compound 25]" readout_label=pIC50 readout_value="6.00 to 7.00"
compound="CN(C(=O)C1(C#N)CC1)c1cccc(-n2c(=O)n(-c3ccc(Oc4ccccc4)cc3)c3c(N)ncnc32)c1 [Compound 34]" readout_label=pIC50 readout_value="6.00 to 7.00"
compound="CN(C)C/C=C/C(=O)N(C)c1cccc(-n2c(=O)n(-c3ccc(C(=O)Nc4nccs4)cc3)c3c(N)ncnc32)c1 [Compound 18]" readout_label=pIC50 readout_value="> 7.00"
compound="CCc1ccnc(NC(=O)c2ccc(-n3c(=O)n(-c4cccc(N(C)C(=O)/C=C/CN(C)C)c4)c4ncnc(N)c43)cc2)c1 [Compound 8]" readout_label=pIC50 readout_value="> 7.00"
